Values from ChEMBL document CHEMBL1148386

- Target entity: Metabotropic glutamate receptor 6 (Rattus norvegicus, UniProt P35349)
- Sequence (P35349 whole entry): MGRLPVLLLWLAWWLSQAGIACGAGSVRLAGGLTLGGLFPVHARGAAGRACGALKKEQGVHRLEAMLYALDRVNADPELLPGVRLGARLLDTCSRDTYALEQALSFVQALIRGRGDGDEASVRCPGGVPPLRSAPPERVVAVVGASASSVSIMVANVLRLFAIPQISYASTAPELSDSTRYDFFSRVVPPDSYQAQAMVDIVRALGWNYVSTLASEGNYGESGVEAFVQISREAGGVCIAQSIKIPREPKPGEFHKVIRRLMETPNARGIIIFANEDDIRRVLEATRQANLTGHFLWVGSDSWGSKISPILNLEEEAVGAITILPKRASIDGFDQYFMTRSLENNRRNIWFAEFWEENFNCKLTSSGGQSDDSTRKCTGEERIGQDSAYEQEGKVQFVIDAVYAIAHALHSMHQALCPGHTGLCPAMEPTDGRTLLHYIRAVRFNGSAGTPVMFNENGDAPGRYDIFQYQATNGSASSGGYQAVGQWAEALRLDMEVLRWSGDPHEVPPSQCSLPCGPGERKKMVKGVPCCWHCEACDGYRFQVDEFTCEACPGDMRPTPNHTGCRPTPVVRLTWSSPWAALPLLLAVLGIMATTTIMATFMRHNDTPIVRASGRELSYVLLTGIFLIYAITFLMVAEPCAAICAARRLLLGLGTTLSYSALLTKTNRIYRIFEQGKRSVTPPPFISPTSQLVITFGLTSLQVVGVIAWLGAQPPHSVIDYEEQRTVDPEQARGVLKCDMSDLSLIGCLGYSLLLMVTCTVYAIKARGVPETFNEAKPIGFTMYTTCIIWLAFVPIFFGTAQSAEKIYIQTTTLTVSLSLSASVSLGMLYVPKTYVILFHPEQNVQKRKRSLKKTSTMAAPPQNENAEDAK
- Assay name: Metabotropic glutamate receptor 6 agonist activity to influence forskolin stimulated c-AMP formation in rat non neuronal cells
- Format: functional, cell-based
For each record, write down the corresponding pEC50.
Numbers only, as −log10 of the molar value.

Consider the worked cases shown below.
# Compound, Obs value
data = [
    ("N[C@H](C(=O)O)[C@H]1C[C@@H]1C(=O)O", 6.22),
    ("NC(C(=O)O)c1ccc(P(=O)(O)O)cc1 (racemic)", 5.33),
    ("C[C@H]1[C@H](C(=O)O)[C@H]1[C@H](N)C(=O)O", 5.92),
]

Return reported pEC50 values for all items listed beneath this line.
1. N[C@@H](CCP(=O)(O)O)C(=O)O
2. N[C@H](C(=O)O)c1ccc(C(=O)O)c(C(=O)O)c1

OUTPUT:
1: 7.26; 2: 5.44
